# TESTED_SYSTEM: FGFR1 (UniProt P11362)
# Sequence (P11362 whole entry, looked up): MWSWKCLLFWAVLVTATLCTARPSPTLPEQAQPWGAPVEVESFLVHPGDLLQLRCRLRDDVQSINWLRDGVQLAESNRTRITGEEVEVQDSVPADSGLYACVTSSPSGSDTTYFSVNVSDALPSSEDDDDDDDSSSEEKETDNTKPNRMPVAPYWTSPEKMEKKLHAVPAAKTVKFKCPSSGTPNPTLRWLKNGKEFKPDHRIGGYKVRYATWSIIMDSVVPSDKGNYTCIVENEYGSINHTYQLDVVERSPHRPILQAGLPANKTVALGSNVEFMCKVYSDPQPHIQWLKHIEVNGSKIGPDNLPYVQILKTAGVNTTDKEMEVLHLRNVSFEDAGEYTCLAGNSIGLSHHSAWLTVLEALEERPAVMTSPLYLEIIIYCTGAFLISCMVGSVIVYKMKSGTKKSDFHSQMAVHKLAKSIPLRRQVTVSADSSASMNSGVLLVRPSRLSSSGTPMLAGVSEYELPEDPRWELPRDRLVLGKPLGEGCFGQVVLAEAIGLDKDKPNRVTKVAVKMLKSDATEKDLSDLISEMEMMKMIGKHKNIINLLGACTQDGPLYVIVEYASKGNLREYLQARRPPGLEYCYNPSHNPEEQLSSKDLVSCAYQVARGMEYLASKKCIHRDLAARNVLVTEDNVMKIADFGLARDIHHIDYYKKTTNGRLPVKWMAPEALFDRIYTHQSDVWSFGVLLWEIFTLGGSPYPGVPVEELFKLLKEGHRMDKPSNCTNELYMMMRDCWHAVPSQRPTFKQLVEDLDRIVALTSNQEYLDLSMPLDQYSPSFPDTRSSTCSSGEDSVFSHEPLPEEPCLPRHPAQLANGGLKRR
# PROTOCOL_DETAILS: phosphorylation enrichment, bacterial display (enrichment ratio); higher = better substrate or ligand; peptides without Tyr show the background;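 note: 11-residue human phosphosite peptides and single-mutation variants displayed on the E. coli surface, counted by deep sequencing, each peptide's frequency after selection divided by its frequency in the unselected input library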;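 note: frequency after pTyr selection over input frequency; kinase dosed for 20-30% of maximal phosphorylation in three min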
Below, each of the sequences is paired with its reported phosphorylation enrichment value.
Just the number, please.

LITTLYSGFLG [KCNQ1_Y267_I268S]    0.339

Query: phosphorylation enrichment; subject: NGSKAYAFVHF [PABPC5_Y147_G146A_YF]
0.649

Another sequence to check: RDWSLYFKIIE [KRT18_Y129_H128L]
0.395

Another sequence to check: QKLPLYILENN [VPS13B_Y2774_S2773L]
0.81

Another sequence to check: SRIWVYNHFRC [BRCA2_Y2621_W2626C_YF]
0.575

Another sequence to check: KGSLPYSLILD [PKD1L2_Y406_N407S]
2.32

Another sequence to check: PNAFIYVVQLP [L1CAM_Y420_A415P_YF]
0.797

Another sequence to check: GESKDYALHAG [SVIL_Y185_V189A]
0.365

Another sequence to check: KSIEEYLKLVG [RASAL2_Y381]
0.528

Another sequence to check: LRVHSYKSMQP [DRC7_Y516]
0.479

Another sequence to check: HEHVGYTTLNR [CHN1_Y148_Y143H]
0.573

----------
# TESTED_SYSTEM: Jak2 (UniProt O60674)
# Sequence (O60674 whole entry, looked up): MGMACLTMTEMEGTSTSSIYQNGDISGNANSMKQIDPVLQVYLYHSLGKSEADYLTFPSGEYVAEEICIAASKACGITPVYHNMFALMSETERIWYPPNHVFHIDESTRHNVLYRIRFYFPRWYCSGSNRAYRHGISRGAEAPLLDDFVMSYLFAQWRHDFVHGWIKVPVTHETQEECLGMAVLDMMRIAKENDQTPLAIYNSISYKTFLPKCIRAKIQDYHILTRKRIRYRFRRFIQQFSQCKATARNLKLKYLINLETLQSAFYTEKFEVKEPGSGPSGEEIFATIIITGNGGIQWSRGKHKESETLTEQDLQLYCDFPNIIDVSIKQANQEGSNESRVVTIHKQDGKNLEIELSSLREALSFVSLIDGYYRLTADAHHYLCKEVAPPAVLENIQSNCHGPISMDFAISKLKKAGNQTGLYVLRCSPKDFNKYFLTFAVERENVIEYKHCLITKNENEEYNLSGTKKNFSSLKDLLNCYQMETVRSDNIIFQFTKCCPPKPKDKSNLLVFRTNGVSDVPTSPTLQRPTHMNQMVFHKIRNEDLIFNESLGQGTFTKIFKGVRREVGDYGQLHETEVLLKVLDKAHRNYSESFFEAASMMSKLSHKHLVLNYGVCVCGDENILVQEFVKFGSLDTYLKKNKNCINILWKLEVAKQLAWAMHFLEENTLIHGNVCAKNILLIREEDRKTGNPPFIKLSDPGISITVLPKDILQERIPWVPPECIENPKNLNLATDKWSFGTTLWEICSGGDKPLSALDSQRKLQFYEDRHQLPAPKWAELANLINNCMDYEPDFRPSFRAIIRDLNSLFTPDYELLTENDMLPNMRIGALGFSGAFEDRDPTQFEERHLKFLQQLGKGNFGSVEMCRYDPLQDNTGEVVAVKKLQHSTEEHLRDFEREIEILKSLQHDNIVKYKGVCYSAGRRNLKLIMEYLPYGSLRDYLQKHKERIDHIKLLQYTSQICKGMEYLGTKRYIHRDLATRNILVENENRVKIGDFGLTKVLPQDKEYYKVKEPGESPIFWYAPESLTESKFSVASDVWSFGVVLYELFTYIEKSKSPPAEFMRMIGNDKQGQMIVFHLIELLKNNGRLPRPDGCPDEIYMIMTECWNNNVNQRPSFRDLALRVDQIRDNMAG
# PROTOCOL_DETAILS: phosphorylation enrichment, bacterial display (enrichment ratio); higher = better substrate or ligand; peptides without Tyr show the background
Given measured phosphorylation enrichment, output Yes if it is greater than or equal to 1 and No if not.

Take a look at these entries with their results.
KMTGRYEMYAR [UPB1_Y362]    No
LFSGDYFRIQG [DDR2_Y740_YF]    Yes
DSDTDYGSGFP [RNASEH2A_Y206_L202S_YF]    No
EKLQQYIAPGM [EPHB3_Y600]    No
RDWSLYFKIIE [KRT18_Y129_H128L]    Yes

Determine whether this sequence has phosphorylation enrichment no lower than 1: NESVDYRATFP [MET_Y1003]
No

Another sequence to check: VGQRPYQPLPE [REEP3_Y170]
No

Another sequence to check: RQEEEYKRFSE [SFSWAP_Y133_L136F]
Yes

Another sequence to check: SVTCTYSPAHN [TP53_Y126_L130H]
Yes

Another sequence to check: GSTLSYFGLAA [P2RX7_Y343]
Yes

Another sequence to check: FIGRIYLYLTK [GARS1_Y414]
Yes

Another sequence to check: IGRHAYGDQYR [IDH1_Y135]
No

----------
Below, each of the sequences is paired with its reported phosphorylation enrichment value.
# Test system: AncSZ
# PROTOCOL_DETAILS: phosphorylation enrichment, bacterial display (enrichment ratio); higher = better substrate or ligand; peptides without Tyr show the background
Just the number, please.

Query: phosphorylation enrichment; subject: HVKHNYECLVY [XRCC5_Y416_I412V]
1.06

Another sequence to check: EFKKKYSDADI [CKAP5_Y1860_YF]
0.576

Another sequence to check: SHLLRYLSWTV [CLCNKB_Y93]
1.24

Another sequence to check: MLEVPYVDRNS [F10_Y384]
0.847

Another sequence to check: RLAKTYETTLK [ALB_Y377_E382K]
0.768

Another sequence to check: RRIHSYRRHLW [VHL_Y112_G114R]
0.735

Another sequence to check: SLKEFYGEDAK [ALDH3A1_Y272]
0.929

Another sequence to check: ASLEAYCKHKY [RXRA_Y403]
0.964

Another sequence to check: VSGIPYGQPKQ [NEU1_Y251]
0.494

Another sequence to check: EPGNLYIAKVE [CNTN4_Y180_T176P]
0.833
